Species on record: Rattus norvegicus
Protocol Notes: DrugMatrix - Regimen: Daily Repeat
Format: toxicity, organism-based, Sprague-Dawley
Design: regimen Daily Repeat, gender Male, age 6-8 weeks
Condition Details: in vivo, po, 0 mg/kg, 120 h, tissue Plasma, route oral GAVAGE, dose level Control, time 5 day, […]
Exercise: for every item that follows, state its recorded LACTATE DEHYDROGENASE.
Answers are plain numbers, in u/L.

1) C[C@H]1O[C@@H](O[C@H]2[C@@H](O)C[C@H](O[C@H]3[C@@H](O)C[C@H](O[C@H]4CC[C@@]5(C)[C@H](CC[C@@H]6[C@@H]5CC[C@]5(C)[C@@H](C7=CC(=O)OC7)CC[C@]65O)C4)O[C@@H]3C)O[C@@H]2C)C[C@H](O)[C@@H]1O; 104.83

For every item below, please supply its LACTATE DEHYDROGENASE.
1. O=NN(CCCl)C(=O)NCCCl
2. CC/C(=C(/CC)c1ccc(O)cc1)c1ccc(O)cc1
3. O=C(O)Cc1ccccc1Nc1c(Cl)cccc1Cl

Response:
[91.5, 88.5, 111.5]

====

Organism: Rattus norvegicus
Protocol Notes: DrugMatrix - Regimen: Daily Repeat
Type: toxicity, organism-based, Sprague-Dawley
Set-up: regimen Daily Repeat, gender Male, age 6-8 weeks
Condition Details: in vivo, po, 0 mg/kg, 72 h, tissue Blood, route oral GAVAGE, dose level Control, time 3 day, vehicle 100 % WATER
Endpoint: LEUKOCYTE COUNT (x10E3/uL)
Answers are plain numbers, in x10E3/uL.

These recorded examples may help you get a feel for the data.
1) C[N+](C)(C)CCO.[Cl-] [CHOLINE CHLORIDE]; 11.48
2) CC(C)NCC(O)COc1cccc2ccccc12 (stereo not given) [PROPRANOLOL]; 11.83

For every item below, please supply its LEUKOCYTE COUNT.
1. COc1cc2ncnc(Nc3ccc(F)c(Cl)c3)c2cc1OCCCN1CCOCC1 [GEFITINIB]
2. Cc1ncc([N+](=O)[O-])n1CCO [METRONIDAZOLE]
3. CC(C)(C)c1ccc(C(=O)CCCN2CCC(OC(c3ccccc3)c3ccccc3)CC2)cc1 [EBASTINE]

Response:
1. 13.95
2. 13.43
3. 14.02

====

Exercise: for every item that follows, state its recorded LIPASE.
Species on record: Rattus norvegicus
Protocol Notes: DrugMatrix - Regimen: Daily Repeat
Type: toxicity, organism-based, Sprague-Dawley
Set-up: regimen Daily Repeat, gender Male, age 6-8 weeks
Condition Details: in vivo, po, 0 mg/kg, 72 h, tissue Plasma, route oral GAVAGE, dose level Control, time 3 day, vehicle .5 % CMC
Give bare numbers, in u/L.

These recorded examples may help you get a feel for the data.
1. Clc1ccc2c(c1)C(N1CCNCC1)=Nc1ccccc1O2; 9
2. CNC(=C[N+](=O)[O-])NCCSCc1ccc(CN(C)C)o1; 9
3. C[C@]1(Cn2ccnn2)[C@H](C(=O)O)N2C(=O)C[C@H]2S1(=O)=O; 9.5
4. C#C[C@]1(O)CC[C@H]2[C@@H]3CCc4cc(OC)ccc4[C@H]3CC[C@@]21C; 9

Please look at the following molecule next.
Value of LIPASE reported for the molecule CC(=O)CC(c1ccccc1)c1c(O)c2ccccc2oc1=O (stereo not given) is 9.8

====

Organism: Rattus norvegicus
Protocol Notes: DrugMatrix - Regimen: Daily Repeat
Type: toxicity, organism-based, Sprague-Dawley
Parameters: regimen Daily Repeat, gender Male, age 6-8 weeks
Condition Details: in vivo, iv, 0 mg/kg, 120 h, tissue Plasma, dose level Control, time 5 day, vehicle 100 % SALINE
Endpoint: ALBUMIN (G/DL)
Numbers only, in G/DL.

Value of ALBUMIN reported for the compound `CC(=O)N[C@@H]1[C@H](Oc2c3cc4cc2Oc2ccc(cc2Cl)[C@@H](O[C@@H]2O[C@@H](CO)[C@@H](O)[C@H](O)[C@@H]2NC(C)=O)[C@@H]2NC(=O)[C@H](NC(=O)[C@@H]4NC(=O)[C@H]4NC(=O)[C@@H](Cc5ccc(c(Cl)c5)O3)NC(=O)[C@H](N)c3ccc(O)c(c3)Oc3cc(O)cc4c3)c3ccc(O)c(c3)-c3c(O[C@H]4O[C@H](CO)[C@@H](O)[C@@H](O)[C@@H]4O)cc(O)cc3[C@@H](C(=O)O)NC2=O)O[C@@H](CO)[C@@H](O)[C@@H]1O` is 4.25

Where do the numbers come from? From ChEMBL document CHEMBL3885881.
